Experiment: Cytotoxicity against mouse J774.1 cells incubated for 24 hrs and measured 48 and 72 hrs post dye addition by Alamar blue dye based assay
Type: cell-based
property: CC50 at 24 h

Given CC[C@H](C)[C@@H]1NC(=O)[C@H](C(C)C)NC(=O)[C@H](CC(C)C)NC(=O)CNC(=O)[C@@H](Cc2ccccc2)NC(=O)[C@@H](C)NC1=O , state its recorded CC50 at 24 h.
> 200 µM

Where do these numbers come from? They come from ChEMBL document CHEMBL4184266.
